assay: clinical; settings: human, in vivo, 8 mg
parameter: Tmax

Give the reported value of Tmax for this record: N[C@@H]1CC[C@@H](c2ccc(Cl)c(Cl)c2)c2ccccc21
> 6 h

----------
target: NE transporters (NET) (Homo sapiens, UniProt P23975); assay: norepinephrine uptake inhibition
Sequence (P23975 whole entry): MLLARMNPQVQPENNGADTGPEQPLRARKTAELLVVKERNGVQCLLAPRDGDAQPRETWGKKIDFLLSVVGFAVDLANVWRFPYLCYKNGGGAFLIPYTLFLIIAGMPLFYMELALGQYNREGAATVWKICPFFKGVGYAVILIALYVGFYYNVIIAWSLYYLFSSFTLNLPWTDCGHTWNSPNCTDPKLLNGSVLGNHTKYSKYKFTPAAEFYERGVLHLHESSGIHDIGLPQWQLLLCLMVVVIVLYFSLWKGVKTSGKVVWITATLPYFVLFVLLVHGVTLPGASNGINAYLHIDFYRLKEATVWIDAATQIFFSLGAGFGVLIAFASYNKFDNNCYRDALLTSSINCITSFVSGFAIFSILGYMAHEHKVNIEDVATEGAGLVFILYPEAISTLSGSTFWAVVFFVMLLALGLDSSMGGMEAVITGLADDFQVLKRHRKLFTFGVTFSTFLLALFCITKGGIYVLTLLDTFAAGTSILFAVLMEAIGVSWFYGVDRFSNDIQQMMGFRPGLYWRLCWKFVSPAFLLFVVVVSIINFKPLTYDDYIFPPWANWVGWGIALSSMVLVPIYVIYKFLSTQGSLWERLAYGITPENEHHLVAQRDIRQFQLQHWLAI
parameter: pIC50
Remember, pIC50 is on a log scale: it is -log10 of the molar concentration.

Give the reported value of pIC50 for this record: N[C@@H]1CC[C@@H](c2ccc(Cl)c(Cl)c2)c2ccccc21
8.40

----------
assay: clinical; format: in vivo, human; conditions: human, in vivo; read-out: serum half-life (t1/2)
parameter: half-life

Give the reported value of half-life for this record: N[C@@H]1CC[C@@H](c2ccc(Cl)c(Cl)c2)c2ccccc21
1.96 to 3.21 days

----------
experiment: clinical; assay type: in vivo, human; conditions: human, in vivo, po
parameter: Tmax

Give the reported value of Tmax for this record: N[C@@H]1CC[C@@H](c2ccc(Cl)c(Cl)c2)c2ccccc21 [dasotraline]
10 to 12 h

----------
assay: clinical; details: human, in vivo, 8 mg
parameter: Cmax

Give the reported value of Cmax for this record: N[C@@H]1CC[C@@H](c2ccc(Cl)c(Cl)c2)c2ccccc21
~3 ng/mL

----------
assay: clinical; format: in vivo, human; settings: human, in vivo; 8 mg once daily, by week four; read-out: serum concentration plateau
parameter: concentration at 4 weeks

Give the reported value of concentration at 4 weeks for this record: N[C@@H]1CC[C@@H](c2ccc(Cl)c(Cl)c2)c2ccccc21
15 to 20 ng/mL

Data origin: patent US20170266133A1
